System: PolyAU double stranded RNA
Test: Fluorescence intercalator displacement (FID) assay, SYBR-safe probe
Conditions: 20 μM compound, 30° C., lower % = stronger binding
Experimental: The ability of compounds of the invention to bind to DNA and RNA was assessed using a fluorescence intercalator displacement assay. Genomic double stranded DNA (salmon) or PolyAU double stranded RNA is treated with probe molecule (Sybr-Safe) that increases its fluorescence upon binding to nucleic acids. […]
In this section, each of the molecules is paired with its reported % Normalised Fluorescence with polyAU RNA.
RECORDED METRIC: % Normalised Fluorescence with polyAU RNA (%)

molecule="CC/N=C(/CCNC(=O)c1cc(NC(=O)c2cc(NC(=O)c3ccc(/C=C/c4ccc5nonc5c4)cc3)cn2C)cn1C)NCC [Ia25]" unit_label=% result=12
molecule="Cn1cc(NC(=O)c2cc(NC(=O)c3ccc(/C=C/c4cnc5ccccc5c4)cc3)cn2C)cc1C(=O)NCCC(=N)N1CCSCC1 [Ib7]" unit_label=% result=7
molecule="CCCCCCC[N+](C)(C)CCNC(=O)c1cc(NC(=O)c2cc(NC(=O)c3ccc(/C=C/c4cnc5ccccc5c4)cc3)cn2C)cn1C [Ic6]" unit_label=% result=12
molecule="CN(C)c1ccc(/C=C/c2ccc(C(=O)Nc3c[nH]c(C(=O)Nc4c[nH]c(C(=O)NCCC(=N)N)c4)c3)cn2)cc1 [IIIa9]" unit_label=% result=24
molecule="Cn1cc(NC(=O)c2ccc(/C=C/c3ccc4nonc4c3)cc2)cc1C(=O)Nc1c[nH]c(C(=O)NCCC(=N)N)c1 [IIIa3]" unit_label=% result=3
molecule="CC(C)NC(=N)CCNC(=O)c1cc(NC(=O)c2cc(NC(=O)c3ccc(/C=C/c4cnc5ccccc5c4)cc3)cn2C)cn1C [Ia21]" unit_label=% result=2
molecule="Cn1cc(NC(=O)c2cc(NC(=O)c3ccc(/C=C/c4cnc5ccccc5c4)cc3)cn2C)cc1C(=O)NCCC(=N)N1CCOCC1 [Ib5]" unit_label=% result=13

* * *

In this section, each of the molecules is paired with its reported MIC80.
test system: Staphylococcus aureus (ATCC 43300); test: Antibacterial MIC, broth microdilution (CLSI); type: cell-based; conditions: Staphylococcus aureus, ATCC43300; read-out: MIC80 S. aureus
RECORDED METRIC: MIC80

compound_smiles=CCNC(=N)CCNC(=O)c1cc(NC(=O)c2cc(NC(=O)c3ccc(/C=C/c4ccc(OC)cc4)nc3)cn2C)cn1C result="< 5 µM"
compound_smiles=CCNC(=N)CCNC(=O)c1cc(NC(=O)c2cc(NC(=O)c3ccc(/C=C/c4cccc(OC)c4)cc3)cn2C)cn1C result="5 to 25 µM"
compound_smiles=[H]/N=C(\CCNC(=O)c1cc(NC(=O)c2cc(NC(=O)c3ccc(C=Cc4ccc5nonc5c4)cc3)cn2C)cn1C)NCCc1ccccc1 result="< 5 µM"
compound_smiles=CCCCCCCCC[N+](C)(C)CCNC(=O)c1cc(NC(=O)c2cc(NC(=O)c3ccc(/C=C/c4cnc5ccccc5c4)cc3)cn2C)cn1C result="< 5 µM"
compound_smiles=Cn1cc(NC(=O)c2cc(NC(=O)c3ccc(/C=C/c4cnc5ccccc5c4)cc3)cn2C)cc1C(=O)NCCC(=N)NCC(F)F result="< 5 µM"
compound_smiles=CCCCCCC/N=C(/CCNC(=O)c1cc(NC(=O)c2cc(NC(=O)c3ccc(/C=C/c4cnc5ccccc5c4)cc3)cn2C)cn1C)NCCCCCCC result="5 to 25 µM"
compound_smiles=[H]/N=C(\CCNC(=O)c1cc(NC(=O)c2cc(NC(=O)c3ccc(C=Cc4ccc5nonc5c4)cc3)cn2C)cn1C)NCCCN(C)C result="25 to 100 µM"
compound_smiles=COCCNC(=O)c1cc(NC(=O)c2cc(NC(=O)c3ccc(/C=C/c4cnc5ccccc5c4)cc3)cn2C)cn1C result="< 5 µM"
compound_smiles=CN(C)c1ccc(/C=C/c2ccc(C(=O)Nc3cc(C(=O)Nc4cc(C(=O)NCCCCCC(=N)N)n(C)c4)n(C)c3)cn2)cc1 result="5 to 25 µM"
compound_smiles=C/N=C(\CCNC(=O)c1cc(NC(=O)c2cc(NC(=O)c3ccc(/C=C/c4ccc(OC)cc4)nc3)cn2C)cn1C)NC result="5 to 25 µM"
compound_smiles=CCCCNC(=O)c1cc(NC(=O)c2cc(NC(=O)c3ccc(/C=C/c4cnc5ccccc5c4)cc3)cn2C)cn1C result="< 5 µM"
compound_smiles=CC/N=C(\N)CCNC(=O)c1cc(NC(=O)c2cc(NC(=O)c3ccc(/C=C/c4cnc5ccccc5c4)cc3)cn2C)cn1C result="< 5 µM"
compound_smiles=CN(C)c1ccc(/C=C/c2ccc(C(=O)Nc3cc(C(=O)Nc4cc(C(=O)NCCCCN5CCCC5)n(C)c4)n(C)c3)cn2)cc1 result="> 100 µM"
compound_smiles=CC[N+](C)(C)CCCNC(=O)c1cc(NC(=O)c2cc(NC(=O)c3ccc(/C=C/c4ccc5nonc5c4)cc3)cn2C)cn1C result="25 to 100 µM"
compound_smiles=CCCCCC[N+](C)(C)CCNC(=O)c1cc(NC(=O)c2cc(NC(=O)c3ccc(/C=C/c4cnc5ccccc5c4)cc3)cn2C)cn1C result="< 5 µM"
compound_smiles=CC[N+](C)(C)CCCNC(=O)c1cc(NC(=O)c2cc(NC(=O)c3ccc(/C=C/c4ccc(F)c(OC)c4)nc3)cn2C)cn1C result="25 to 100 µM"
compound_smiles=Cn1cc(NC(=O)c2ccc(/C=C/c3cnc4ccccc4c3)cc2)cc1C(=O)Nc1cc(C(=O)N2CCSCC2)n(C)c1 result="25 to 100 µM"
compound_smiles=CCCCCCC[N+]1(CCNC(=O)c2cc(NC(=O)c3cc(NC(=O)c4ccc(/C=C/c5cnc6ccccc6c5)cc4)cn3C)cn2C)CCOCC1 result="< 5 µM"
compound_smiles=CCCCCCCC[N+](C)(C)CCNC(=O)c1cc(NC(=O)c2cc(NC(=O)c3ccc(/C=C/c4cnc5ccccc5c4)cc3)cn2C)cn1C result="< 5 µM"
compound_smiles=CCCCCCCCCC[N+](C)(C)CCNC(=O)c1cc(NC(=O)c2cc(NC(=O)c3ccc(/C=C/c4cnc5ccccc5c4)cc3)cn2C)cn1C result="< 5 µM"
compound_smiles=Cn1cc(NC(=O)c2cc(NC(=O)c3ccc(/C=C/c4cnc5ccccc5c4)cc3)c[nH]2)cc1C(=O)NCCC(=N)N result="< 5 µM"
compound_smiles=[H]/N=C(\CCNC(=O)c1cc(NC(=O)c2cc(NC(=O)c3ccc(C=Cc4ccc5nonc5c4)cc3)cn2C)cn1C)NCCN1CCN(C)CC1 result="5 to 25 µM"
compound_smiles=CC[N+](C)(C)CCCNC(=O)c1cc(NC(=O)c2cc(NC(=O)c3ccc(/C=C/c4cnc5ccccc5c4)cc3)cn2C)cn1C result="5 to 25 µM"
compound_smiles=COCCOCC[N+](C)(C)CCNC(=O)c1cc(NC(=O)c2cc(NC(=O)c3ccc(/C=C/c4cnc5ccccc5c4)cc3)cn2C)cn1C result="< 5 µM"
compound_smiles=Cn1cc(NC(=O)c2cc(NC(=O)c3ccc(/C=C/c4cnc5ccccc5c4)cc3)cn2C)cc1C(=O)NCCCCCC(=N)N result="5 to 25 µM"
compound_smiles=CNC(=N)CCNC(=O)c1cc(NC(=O)c2cc(NC(=O)c3ccc(/C=C/c4ccc5ccccc5c4)cc3)cn2C)cn1C result="5 to 25 µM"
compound_smiles=Cn1cc(NC(=O)c2ccc(/C=C/c3ccc4nonc4c3)cc2)cc1C(=O)Nc1c[nH]c(C(=O)NCCC(=N)N)c1 result="5 to 25 µM"
